# assayedTarget: Recombinant human c-KIT kinase (Homo sapiens (Human), UniProt P10721)
# Sequence (P10721 26-976): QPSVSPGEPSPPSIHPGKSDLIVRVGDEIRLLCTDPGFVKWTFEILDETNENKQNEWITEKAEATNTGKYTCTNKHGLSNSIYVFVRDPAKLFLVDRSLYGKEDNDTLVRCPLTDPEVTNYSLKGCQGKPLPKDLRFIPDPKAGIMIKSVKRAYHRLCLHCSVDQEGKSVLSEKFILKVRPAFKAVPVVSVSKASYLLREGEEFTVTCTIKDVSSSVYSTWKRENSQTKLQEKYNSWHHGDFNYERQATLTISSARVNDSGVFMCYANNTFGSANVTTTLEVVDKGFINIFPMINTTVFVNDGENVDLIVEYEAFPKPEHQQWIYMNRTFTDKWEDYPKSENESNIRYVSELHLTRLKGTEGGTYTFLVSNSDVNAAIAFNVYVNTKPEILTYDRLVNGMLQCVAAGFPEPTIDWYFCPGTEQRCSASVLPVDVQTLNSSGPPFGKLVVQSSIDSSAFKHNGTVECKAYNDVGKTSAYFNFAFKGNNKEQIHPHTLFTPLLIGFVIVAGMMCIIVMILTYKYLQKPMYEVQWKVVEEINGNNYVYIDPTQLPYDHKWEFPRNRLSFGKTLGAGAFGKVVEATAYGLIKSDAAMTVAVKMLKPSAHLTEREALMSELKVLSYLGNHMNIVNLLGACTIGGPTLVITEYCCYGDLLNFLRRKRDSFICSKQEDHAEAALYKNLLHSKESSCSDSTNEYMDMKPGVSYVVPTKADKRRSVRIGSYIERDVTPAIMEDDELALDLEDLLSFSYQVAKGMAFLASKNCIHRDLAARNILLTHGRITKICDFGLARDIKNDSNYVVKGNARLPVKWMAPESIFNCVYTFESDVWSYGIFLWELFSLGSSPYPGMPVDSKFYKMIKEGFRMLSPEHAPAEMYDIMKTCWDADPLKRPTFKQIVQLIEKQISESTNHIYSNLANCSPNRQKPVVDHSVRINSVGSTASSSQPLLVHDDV
# methodSummary: c-KIT kinase chemiluminescence assay (ADP-Glo)
# Type: biochemical
# testContext: ATP 50 μM
pIC50: −log10 of the molar value.
Listed here are compounds together with their documented pIC50.

compoundStructure: Cc1ccc(-c2noc([C@H]3C[C@@H]3F)n2)cc1NC(=O)c1cnn2ccc(N3CCN(C(=O)OC(C)(C)C)C[C@H]3C)cc12
pIC50: 6.00 to 7.00
--
compoundStructure: Cc1ccc(-c2noc([C@H]3C[C@@H]3F)n2)cc1NC(=O)c1cnn2cc(-c3cn(C4CC(F)(F)C4)nn3)ccc12
pIC50: > 7.00
--
compoundStructure: Cc1ncc(-c2ncc(OC(F)F)cn2)cc1NC(=O)c1cnn2ccc(N3CC4(C3)CC(O)(C(F)F)C4)cc12
pIC50: 6.00 to 7.00
--
compoundStructure: Cc1ccc(-c2ccn3ncc(C(=O)Nc4cc(-c5noc([C@H]6C[C@@H]6F)n5)ccc4C)c3c2)c(C)n1
pIC50: > 7.00
--
compoundStructure: Cc1ccc(-c2noc([C@H]3C[C@@H]3F)n2)cc1NC(=O)c1cnn2ccc(N3CC(O)(C(F)(F)F)C3)cc12
pIC50: > 7.00
--
compoundStructure: Cc1ccc(-c2noc([C@H]3C[C@@H]3F)n2)cc1NC(=O)c1cnn2ccc(N3CC4(CC(=O)C4)C3)cc12
pIC50: > 7.00
--
compoundStructure: Cc1ccc(-c2noc([C@H]3C[C@@H]3F)n2)cc1NC(=O)c1cnn2ccc(N3CC4(C3)CC(F)(F)C4)cc12
pIC50: > 7.00
--
compoundStructure: Cc1ccc(-c2noc([C@H]3C[C@@H]3F)n2)cc1NC(=O)c1cnn2ccc(NCC3(C(=O)OC(C)(C)C)COC3)cc12
pIC50: 6.00 to 7.00
--
compoundStructure: Cc1ccc(-c2ccc(C(C)C)cn2)cc1NC(=O)c1cnn2ccc(N3CC4(COC4)C3)cc12
pIC50: > 7.00
--
compoundStructure: Cc1ccc(-c2noc([C@H]3C[C@@H]3F)n2)cc1NC(=O)c1cnn2ccc(C3CC4(C3)CC(F)(F)C4)cc12
pIC50: > 7.00
--
compoundStructure: Cc1ccc(-c2noc([C@H]3C[C@@H]3F)n2)cc1NC(=O)n1c(=O)[nH]c2ccccc21
pIC50: < 6.00
--
compoundStructure: Cc1ccc(-c2noc([C@H]3C[C@@H]3F)n2)cc1NC(=O)c1cnn2ccc(N3CCN(C(=O)OC(C)(C)C)[C@H](C)C3)cc12
pIC50: 6.00 to 7.00
--
compoundStructure: Cc1ccc(-c2noc([C@H]3C[C@@H]3F)n2)cc1NC(=O)c1cnn2ccc(N3CC(COCc4ccccc4)(C(=O)OCc4ccccc4)C3)cc12
pIC50: < 6.00
--
compoundStructure: Cc1ccc(-c2noc([C@H]3C[C@@H]3F)n2)cc1NC(=O)c1cnc(-c2cccnc2)o1
pIC50: < 6.00
--
compoundStructure: Cc1ccc(-c2noc([C@H]3C[C@@H]3F)n2)cc1NC(=O)c1cnn(-c2cccc(Br)c2)c1
pIC50: < 6.00
--
compoundStructure: Cc1ccc(-c2noc([C@H]3C[C@@H]3F)n2)cc1NC(=O)c1cnn2ccc(-c3cnc(N)cc3C)cc12
pIC50: > 7.00
--
compoundStructure: Cc1sc(-c2noc([C@H]3C[C@@H](OC(F)(F)F)C3)n2)cc1NC(=O)c1cnn2ccc(N3CC4(C3)CC(O)(C(F)F)C4)cc12
pIC50: > 7.00
--
compoundStructure: Cc1ccc(-c2noc([C@H]3C[C@@H]3F)n2)cc1NC(=O)c1cnc(-c2c(C)nn(CC(C)(C)O)c2C)o1
pIC50: < 6.00
--
compoundStructure: CNS(=O)(=O)c1cccc(-c2ncc(C(=O)Nc3cc(-c4noc([C@H]5C[C@@H]5F)n4)ccc3C)o2)c1
pIC50: 6.00 to 7.00
--
compoundStructure: CC(=O)NC1CN(c2ncc(C(=O)Nc3cc(-c4noc([C@H]5C[C@@H]5F)n4)ccc3C)s2)C1
pIC50: < 6.00
--
compoundStructure: C#Cc1ccc2c(C(=O)Nc3cc(-c4noc([C@H]5C[C@@H]5F)n4)ccc3C)cnn2c1
pIC50: > 7.00
--
compoundStructure: Cc1ccc(-c2noc([C@H]3C[C@@H]4[C@H](C3)C4(F)F)n2)cc1NC(=O)c1cnn2ccc(N3CC4(COC4)C3)cc12
pIC50: > 7.00
--
compoundStructure: CC(=O)Nc1ccc(-c2ncc(C(=O)Nc3cc(-c4noc([C@H]5C[C@@H]5F)n4)ccc3C)o2)cn1
pIC50: < 6.00
--
compoundStructure: Cc1ccc(-c2noc([C@H]3C[C@@H]3F)n2)cc1NC(=O)c1cnn2ccc(-c3cnc(NC4CC4)nc3)cc12
pIC50: > 7.00
--
compoundStructure: COC(=O)N1CCC(c2nc(-c3ccc(C)c(NC(=O)c4cnn5ccc(N6CC7(C6)CC(O)(C(F)F)C7)cc45)c3)no2)CC1
pIC50: > 7.00
--
compoundStructure: COc1cccc(-n2cc(C(=O)Nc3cc(-c4noc([C@H]5C[C@@H]5F)n4)ccc3C)cn2)c1
pIC50: 6.00 to 7.00
--
compoundStructure: Cc1ccc(-c2noc([C@H]3C[C@@H]3F)n2)cc1NC(=O)c1cnn(-c2ccc(Cl)cc2)c1
pIC50: < 6.00

---

# assayedTarget: Recombinant human c-KIT kinase (Homo sapiens (Human), UniProt P10721)
# methodSummary: c-KIT kinase chemiluminescence assay (ADP-Glo)
# testContext: ATP 50 μM
pIC50: −log10 of the molar value.
propertyName: pIC50

compound: COC(=O)N1CC(c2nc(-c3ccc(Cl)c(NC(=O)c4cnn5cc(-c6cn(C(F)F)nn6)ccc45)c3)no2)C1
result: > 7.00
--
compound: Cc1ccc(-c2noc([C@H]3C[C@@H]3F)n2)cc1NC(=O)c1cnc(-c2ccc3c(c2)NCCO3)o1
result: > 7.00
--
compound: Cc1ncc(-c2ncc(OC(F)F)cn2)cc1NC(=O)c1cnc(-c2ccc3c(c2)CC(=O)N3)o1
result: 6.00 to 7.00
--
compound: Cc1ccc(-c2noc([C@H]3C[C@@H]3F)n2)cc1NC(=O)c1cnc2ccccc2n1
result: < 6.00
--
compound: Cc1ncc(-c2ncc(C(F)F)cn2)cc1NC(=O)c1cnn2ccc(N3CC4(C3)CC(O)(C(F)F)C4)cc12
result: 6.00 to 7.00
--
compound: Cc1ccc(-c2noc([C@H]3C[C@@H]3F)n2)cc1NC(=O)c1cnn(C)c1C
result: < 6.00
--
compound: COCCn1nc(C)c(-c2ccn3ncc(C(=O)Nc4cc(-c5noc([C@H]6C[C@@H]6F)n5)ccc4C)c3c2)c1C
result: > 7.00
--
compound: Cc1ccc(-c2noc([C@H]3C[C@@H]3F)n2)cc1NC(=O)c1cnn2ccc(C=O)cc12
result: > 7.00
--
compound: Cc1ccc(-c2noc(C34COC(C)(C3)C4)n2)cc1NC(=O)c1cnn2ccc(N3CC4(COC4)C3)cc12
result: 6.00 to 7.00
--
compound: Cc1ccc(-c2noc(C3CCN(C(=O)[C@H]4C[C@@H]4F)C3)n2)cc1NC(=O)c1cnn2ccc(N3CC4(C3)CC(O)(C(F)F)C4)cc12 (some centres unmarked)
result: 6.00 to 7.00
--
compound: Cc1nccc(-c2ccn3ncc(C(=O)Nc4cc(-c5noc([C@H]6C[C@@H]6F)n5)ccc4C)c3c2)n1
result: > 7.00
--
compound: Cc1ccc(-c2noc([C@H]3C[C@@H]3F)n2)cc1NC(=O)c1cnn2ccc(N3CC4(CCN(CC(F)F)C4)C3)cc12
result: > 7.00
--
compound: Cc1ncc(-c2noc([C@H]3C[C@@H](OC(F)F)C3)n2)cc1NC(=O)c1cnn2ccc(N3CC4(COC4)C3)cc12
result: 6.00 to 7.00
--
compound: Cc1ncc(-c2ccc(OC(F)(F)F)cn2)cc1NC(=O)c1cnn2ccc(N3CC4(C3)CC(O)(C(F)F)C4)cc12
result: > 7.00

---

Measured pEC50 accompanies every entry in the list below.
# Test system: M-07e cells
# methodSummary: M-07e cellular assay (SCF-mediated cell proliferation)
# Assay type: cell-based
# testContext: Homo sapiens, 72 hours, CellTiter Glo
pEC50: −log10 of the molar value.
propertyName: pEC50

molecule: Cc1ccc(-c2noc(C3CN(C(=O)C4(F)CC4)C3)n2)cc1NC(=O)c1cnn2ccc(N3CC4(C3)CC(O)(C(F)F)C4)cc12 [Example 281-35]
result: > 7.00

molecule: Cc1ncc(-c2nnn(C)n2)cc1NC(=O)c1cnn2ccc(N3CC4(C3)CC(O)(C(F)F)C4)cc12 [Example 312-2]
result: > 7.00

molecule: Cc1ncc(-c2noc([C@H]3C[C@@H](OC(F)(F)F)C3)n2)cc1NC(=O)c1cnn2cc(-c3cn(C(F)F)nn3)ccc12 [Example 132-6]
result: > 7.00

molecule: COc1cccc(-c2ncc(C(=O)Nc3cc(-c4noc([C@H]5C[C@@H]5F)n4)ccc3C)o2)c1 [Example 283]
result: > 7.00

molecule: Cc1ccc(-c2noc([C@H]3C[C@@H]3F)n2)cc1NC(=O)c1cnc(-c2ccc3c(c2)OC(C)(C)C(=O)N3)o1 [Example 308-25]
result: 6.00 to 7.00

molecule: Cc1ccc(-c2noc([C@H]3C[C@@H]3F)n2)cc1NC(=O)c1cnn2ccc(N3CC(F)(C(F)(F)F)C3)cc12 [Example 223]
result: 6.00 to 7.00

molecule: Cc1ccc(-c2noc([C@H]3C[C@@H]3F)n2)cc1NC(=O)c1cnc(-c2ccc3cn[nH]c3c2)o1 [Example 294]
result: 6.00 to 7.00
